test-target: FGFR1 (UniProt P11362)
Sequence (P11362 whole entry, looked up): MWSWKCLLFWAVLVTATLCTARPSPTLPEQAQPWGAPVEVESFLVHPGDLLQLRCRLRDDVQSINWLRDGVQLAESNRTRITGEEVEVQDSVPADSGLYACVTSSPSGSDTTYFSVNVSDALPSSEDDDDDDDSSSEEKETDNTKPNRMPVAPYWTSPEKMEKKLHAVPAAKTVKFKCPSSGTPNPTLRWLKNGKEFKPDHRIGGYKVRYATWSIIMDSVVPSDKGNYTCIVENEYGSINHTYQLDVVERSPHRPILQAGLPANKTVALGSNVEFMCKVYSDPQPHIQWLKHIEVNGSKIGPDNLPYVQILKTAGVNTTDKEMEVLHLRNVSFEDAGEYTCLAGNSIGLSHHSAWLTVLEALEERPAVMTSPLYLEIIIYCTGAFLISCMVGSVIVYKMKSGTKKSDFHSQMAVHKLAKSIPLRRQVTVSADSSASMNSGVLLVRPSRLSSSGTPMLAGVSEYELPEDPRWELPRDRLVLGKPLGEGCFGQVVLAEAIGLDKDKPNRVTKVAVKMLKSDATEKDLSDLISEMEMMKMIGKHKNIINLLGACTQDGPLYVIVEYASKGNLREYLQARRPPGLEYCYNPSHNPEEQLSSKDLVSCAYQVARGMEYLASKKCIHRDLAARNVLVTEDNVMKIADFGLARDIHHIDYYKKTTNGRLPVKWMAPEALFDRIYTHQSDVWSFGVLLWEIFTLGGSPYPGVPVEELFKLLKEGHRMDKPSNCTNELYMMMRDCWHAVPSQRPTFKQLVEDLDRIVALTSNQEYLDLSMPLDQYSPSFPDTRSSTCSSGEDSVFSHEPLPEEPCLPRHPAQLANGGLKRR
experiment-description: phosphorylation enrichment, bacterial display (enrichment ratio); higher = better substrate or ligand; peptides without Tyr show the background
measured-quantity: phosphorylation enrichment
# print the numeric value only

// solved cases for phosphorylation enrichment follow
KKARAYRPGIE [FLNA_Y287_G288R] : 0.299
IRDLKYTIENP [SND1_Y178] : 0.776
EFNINYNNELP [THG1L_Y228] : 0.488
FSNVLYRPRGP [TMIGD2_Y197_A202P_YF] : 0.367
ARVANYHRDGP [CAT_Y386_Q387H] : 0.519

API: value(readout= phosphorylation enrichment, system= FGFR1 (UniProt P11362), query= IRRSSYEDSSL [HNF4A_Y144_T139I] )
0.411

* * *

Test system: Fer (mouse)
experiment-description: phosphorylation enrichment, bacterial display (enrichment ratio); higher = better substrate or ligand; peptides without Tyr show the background
Label yes (1) for high-side phosphorylation enrichment (at or above 0.4) and no (0) for low-side phosphorylation enrichment (below it).

Answered examples (5):
NVPILYTASQA [CTNNA1_Y222] : yes (1)
EGTGHYLCNAC [GATA5_Y208_D203E] : no (0)
PLDGEYVTLQI [TP53_Y327_F328V] : yes (1)
DFRTTYVNANE [KCNH2_Y475_N470D] : no (0)
EDKSIYRRGAR [PRKCI_Y125] : no (0)

Hello, I need to know if MSPPGYKLVNG [GJA1_Y286_T290N] has measured phosphorylation enrichment not below 0.4. Thanks!
no (0)

Hello, I need to know if FDNPVYQKTTE [LDLR_Y828] has measured phosphorylation enrichment not below 0.4. Thanks!
yes (1)

* * *

test-target: c-Src SH2
experiment-description: SH2 binding enrichment of the phosphorylated peptide, bacterial display (enrichment ratio); higher = better substrate or ligand; peptides without Tyr show the background
Category | rule: reported SH2 binding enrichment within range, see low bracket = under 0.6, middle bracket = from 0.6 up to 1, high bracket = 1 and over

Answered examples (4):
AVLALYNSTRD [TGFB1_Y81] : middle bracket
CTTIHYNFMCS [TP53_Y234_N239S_YF] : high bracket
QYQEKYKQMEQ [HCN4_Y531_V534M] : low bracket
KKCTTYIDCDL [ASPA_Y64_R63T] : middle bracket

Form field 'band' for PSSNLYYRCLT [CNGA3_Y168_W171C]
low bracket

Form field 'band' for RRVLVYGGRGA [QDPR_Y16]
low bracket

Form field 'band' for SDVDLYQVRIA [PSMD9_Y70_T74I]
low bracket

Form field 'band' for AFRRGYFDEEM [PLEC_Y2971_YF]
middle bracket

Form field 'band' for ISHVAYLVLGK [TRRAP_Y892_R893L]
high bracket

Form field 'band' for VVHSSYDEIEG [SEC24A_Y263]
high bracket

Form field 'band' for DFTSRYLNASD [PKHD1_Y828]
middle bracket

* * *

Some sequences, each annotated with its measured phosphorylation enrichment.
Tested on: c-Abl (mouse)
experiment-description: phosphorylation enrichment, bacterial display (enrichment ratio); higher = better substrate or ligand; peptides without Tyr show the background
# print the numeric value only

// solved cases for phosphorylation enrichment follow
HIAKVYRRDNP [HARS1_Y156] : 1.24
KLFYIYTSGTT [SLC27A4_Y245] : 0.767
SARFPYLMAEK [LDHB_Y173_R172P] : 0.361
HNLDFYKKTTN [FGFR3_Y648_YF] : 3.49
DSFATYFRRVL [H2BW1_Y84] : 0.798

Request the reported phosphorylation enrichment associated with IRKDLYSNNVL [ACTC1_Y296_A297S]
0.444

Request the reported phosphorylation enrichment associated with RLLRGYNQSAY [HLA-C_Y137_D138N]
0.36

* * *

test-target: Hck (UniProt P08631)
Sequence (P08631 whole entry, looked up): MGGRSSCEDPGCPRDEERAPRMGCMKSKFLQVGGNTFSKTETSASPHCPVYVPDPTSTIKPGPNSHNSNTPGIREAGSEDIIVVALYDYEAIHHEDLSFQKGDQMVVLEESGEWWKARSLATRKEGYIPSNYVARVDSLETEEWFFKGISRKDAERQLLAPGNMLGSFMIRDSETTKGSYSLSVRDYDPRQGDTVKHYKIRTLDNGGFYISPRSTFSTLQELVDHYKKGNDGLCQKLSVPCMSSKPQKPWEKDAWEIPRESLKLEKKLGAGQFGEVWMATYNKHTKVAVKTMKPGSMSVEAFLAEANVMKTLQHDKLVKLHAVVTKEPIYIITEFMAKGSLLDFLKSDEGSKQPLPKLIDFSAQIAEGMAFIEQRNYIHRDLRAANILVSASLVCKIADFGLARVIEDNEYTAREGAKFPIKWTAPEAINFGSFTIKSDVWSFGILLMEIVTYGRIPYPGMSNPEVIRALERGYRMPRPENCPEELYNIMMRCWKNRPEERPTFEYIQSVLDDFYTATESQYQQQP
experiment-description: phosphorylation enrichment, bacterial display (enrichment ratio); higher = better substrate or ligand; peptides without Tyr show the background
measured-quantity: phosphorylation enrichment
# print the numeric value only

// solved cases for phosphorylation enrichment follow
GHRPVYSEDEQ [CHST6_Y362_Y358H] : 0.564
YGAHKYHPLPV [OAT_Y55_N54K] : 0.787
IVEELYAIPPD [PEAK1_Y797_S792I] : 4.27
EVTLTYATGIK [NFKB1_Y485_T489I] : 0.555
RMSQRYRDVLQ [CYP1A2_Y72_G73R] : 0.66

Request the reported phosphorylation enrichment associated with TEGNGYISFNE [LCP1_Y28_D24E]
0.528

Request the reported phosphorylation enrichment associated with TDLAFYLVREG [ASL_Y376_K380E_YF]
0.546

Request the reported phosphorylation enrichment associated with IRDLKYTIENP [SND1_Y178]
0.507

Request the reported phosphorylation enrichment associated with NKKHHYRELPV [ERN2_Y860]
1.01

Request the reported phosphorylation enrichment associated with SGTYQYIIAKF [FOXL2_Y83_I80T]
2.06

* * *

test-target: c-Src SH2
experiment-description: SH2 binding enrichment of the phosphorylated peptide, bacterial display (enrichment ratio); higher = better substrate or ligand; peptides without Tyr show the background
measured-quantity: SH2 binding enrichment
# print the numeric value only

// solved cases for SH2 binding enrichment follow
GKFRMYVAVWT [F13A1_Y161] : 0.5
HRGYLYLAIEY [TEK_Y899] : 0.695
EFTPLYPMLFG [SCLY_Y280] : 0.504

API: value(readout= SH2 binding enrichment, system= c-Src SH2, query= KAWTIYRPEDS [ZBP1_Y165] )
0.488

API: value(readout= SH2 binding enrichment, system= c-Src SH2, query= ICANKYMVESC [RPL10_Y75_K78E] )
0.675

* * *

test-target: c-Src SH2
experiment-description: SH2 binding enrichment of the phosphorylated peptide, bacterial display (enrichment ratio); higher = better substrate or ligand; peptides without Tyr show the background
measured-quantity: SH2 binding enrichment
# print the numeric value only

// solved cases for SH2 binding enrichment follow
RIVEIYTRRLQ [GCH1_Y175_S176T] : 0.325
FSAPNCCFRCG [PPP2CA_Y265_Y265C_YF] : 0.585
PINLYYLMDLS [ITGB2_Y131_D128N] : 0.624

Request the reported SH2 binding enrichment associated with QITQVYGFFHE [PPP2CA_Y127_D131H_YF]
0.745

Request the reported SH2 binding enrichment associated with GSETPYVDRTP [ESS2_Y335]
0.573

Request the reported SH2 binding enrichment associated with VIKDKYPKAHY [APTX_Y209_R213H]
0.956

Request the reported SH2 binding enrichment associated with KAIMTYVSSFY [ACTN4_Y260]
0.564

Request the reported SH2 binding enrichment associated with EADRKYEEVAH [TPM3_Y163_R168H]
20.4

Request the reported SH2 binding enrichment associated with SGDITYGQFAQ [PLCG1_Y210]
0.53

Request the reported SH2 binding enrichment associated with VGGRIYTDDGL [PKLR_Y218_I219T]
0.453

Request the reported SH2 binding enrichment associated with MHDSNSVSKGS [PDGFRA_Y849_Y849S]
0.465

Request the reported SH2 binding enrichment associated with CTTIHYNFRCN [TP53_Y234_M237R_YF]
1.48

Request the reported SH2 binding enrichment associated with EERKTYVNTTL [TEK_Y1102]
0.516

Request the reported SH2 binding enrichment associated with ESMLRYEVYGG [STOX1_Y607]
0.929

* * *

test-target: MERTK (UniProt Q12866)
Sequence (Q12866 whole entry, looked up): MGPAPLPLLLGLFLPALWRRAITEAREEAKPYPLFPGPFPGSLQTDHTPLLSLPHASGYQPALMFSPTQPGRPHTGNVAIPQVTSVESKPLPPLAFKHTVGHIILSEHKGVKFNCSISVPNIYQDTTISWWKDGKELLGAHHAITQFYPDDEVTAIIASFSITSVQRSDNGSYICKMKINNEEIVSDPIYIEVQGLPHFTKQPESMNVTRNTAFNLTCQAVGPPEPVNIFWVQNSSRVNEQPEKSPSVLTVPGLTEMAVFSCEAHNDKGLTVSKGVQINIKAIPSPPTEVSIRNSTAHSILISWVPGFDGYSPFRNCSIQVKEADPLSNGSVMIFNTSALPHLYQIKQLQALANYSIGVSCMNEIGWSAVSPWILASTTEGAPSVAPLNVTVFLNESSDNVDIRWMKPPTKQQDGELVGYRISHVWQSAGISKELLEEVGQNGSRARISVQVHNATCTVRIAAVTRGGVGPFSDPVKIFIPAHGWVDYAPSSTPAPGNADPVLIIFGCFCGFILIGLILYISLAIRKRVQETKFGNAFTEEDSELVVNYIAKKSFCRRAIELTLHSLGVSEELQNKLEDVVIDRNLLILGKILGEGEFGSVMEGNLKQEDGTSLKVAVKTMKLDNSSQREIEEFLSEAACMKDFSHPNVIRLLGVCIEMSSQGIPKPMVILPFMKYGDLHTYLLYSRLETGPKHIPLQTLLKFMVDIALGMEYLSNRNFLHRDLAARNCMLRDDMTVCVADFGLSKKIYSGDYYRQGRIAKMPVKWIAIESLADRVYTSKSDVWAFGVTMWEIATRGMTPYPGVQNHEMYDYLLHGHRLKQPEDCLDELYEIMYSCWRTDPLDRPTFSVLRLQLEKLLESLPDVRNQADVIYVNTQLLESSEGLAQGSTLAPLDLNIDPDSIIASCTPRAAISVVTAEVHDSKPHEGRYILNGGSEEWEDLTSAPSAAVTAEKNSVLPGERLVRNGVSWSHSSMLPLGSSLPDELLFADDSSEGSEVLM
experiment-description: phosphorylation enrichment, bacterial display (enrichment ratio); higher = better substrate or ligand; peptides without Tyr show the background
Label T for high-side phosphorylation enrichment (at or above 1) and F for low-side phosphorylation enrichment (below it).

Answered examples (3):
KDAGDYKCKAK [LRIT3_Y326] : F
HEEKVYLSRGD [CRACR2A_Y141] : F
EQWRAYLEGTC [HLA-C_Y183_L180W] : F

Would you kindly look at the next entry?
Hello, I need to know if RLDPVYFVAPA [LAMC2_Y250] has measured phosphorylation enrichment not below 1. Thanks!
T

* * *

Tested on: Fer (mouse)
experiment-description: phosphorylation enrichment, bacterial display (enrichment ratio); higher = better substrate or ligand; peptides without Tyr show the background
Label Met for high-side phosphorylation enrichment (at or above 0.5) and Not met for low-side phosphorylation enrichment (below it).

RMSQRYGDVLQ [CYP1A2_Y72] : Met
TMETKYDNISR [SETDB2_Y477_V473M] : Not met
WAFNLYDINKF [KCNIP3_Y174_D179Y_YF] : Met
SGPRRYTIAAL [TTR_Y125] : Not met

Hello, I need to know if KRAIGYYSATS [FAM120A_Y327] has measured phosphorylation enrichment not below 0.5. Thanks!
Not met

* * *

test-target: SHP2-C SH2
experiment-description: SH2 binding enrichment of the phosphorylated peptide, bacterial display (enrichment ratio); higher = better substrate or ligand; peptides without Tyr show the background
measured-quantity: SH2 binding enrichment
# print the numeric value only

// solved cases for SH2 binding enrichment follow
GESKDYALHVG [SVIL_Y185] : 0.612
YIILIYAMKKK [SLCO1B1_Y645] : 2.86
YGMQLYQNYMH [GRB14_Y347] : 1.22
PVQAAYQQVVA [HBB_Y131_K133Q] : 1.06
RFMELYDLNRD [BBS2_Y648_YF] : 1.06
RHFSSYSQMEN [PKP1_Y120_R116H] : 0.991
YRTPGYREVVI [TNS2_Y673_A670T] : 1.03
LKALHYMAQTS [SACS_Y3367_V3369A] : 0.707

API: value(readout= SH2 binding enrichment, system= SHP2-C SH2, query= EPSLVYMVTKI [CPS1_Y768_D767V] )
0.531

API: value(readout= SH2 binding enrichment, system= SHP2-C SH2, query= GNEEAYGSSHI [FAM171B_Y522_R524S] )
0.751

API: value(readout= SH2 binding enrichment, system= SHP2-C SH2, query= CSEEMYCLMLQ [RET_Y981_R982C] )
0.949
